System: Mycobacterium tuberculosis Erdman (autoluminescent)
Assay: Einf, fitted maximum growth inhibition of three-drug combination (fraction); higher = stronger maximal inhibition
Condition Description: in vitro model: butyrate; time point: terminal (~4-5 doublings, model-specific)
Measured Metric: Einf

# Compound, Reported Value
data = [
    ("CC[C@@H](CO)NCCN[C@@H](CC)CO [ethambutol] + COc1c(N2C[C@@H]3CCCN[C@@H]3C2)c(F)cc2c(=O)c(C(=O)O)cn(C3CC3)c12 [moxifloxacin] + CO[C@H]1/C=C/O[C@@]2(C)Oc3c(C)c(O)c4c(O)c(c(/C=N/N5CCN(C)CC5)c(O)c4c3C2=O)NC(=O)/C(C)=C\\C=C\\[C@H](C)[C@H](O)[C@@H](C)[C@@H](O)[C@@H](C)[C@H](OC(C)=O)[C@@H]1C [rifampicin]", 0.966),
    ("CC[C@@H](CO)NCCN[C@@H](CC)CO [ethambutol] + COc1c(N2C[C@@H]3CCCN[C@@H]3C2)c(F)cc2c(=O)c(C(=O)O)cn(C3CC3)c12 [moxifloxacin] + NC(=O)c1cnccn1 [pyrazinamide]", 0.967),
    ("CC(=O)NC[C@H]1CN(c2ccc(N3CCOCC3)c(F)c2)C(=O)O1 [linezolid] + COc1c(N2C[C@@H]3CCCN[C@@H]3C2)c(F)cc2c(=O)c(C(=O)O)cn(C3CC3)c12 [moxifloxacin] + CO[C@H]1/C=C/O[C@@]2(C)Oc3c(C)c(O)c4c(O)c(c(/C=N/N5CCN(C)CC5)c(O)c4c3C2=O)NC(=O)/C(C)=C\\C=C\\[C@H](C)[C@H](O)[C@@H](C)[C@@H](O)[C@@H](C)[C@H](OC(C)=O)[C@@H]1C [rifampicin]", 0.929),
    ("NNC(=O)c1ccncc1 [isoniazid] + COc1c(N2C[C@@H]3CCCN[C@@H]3C2)c(F)cc2c(=O)c(C(=O)O)cn(C3CC3)c12 [moxifloxacin] + NC(=O)c1cnccn1 [pyrazinamide]", 0.975),
    ("NNC(=O)c1ccncc1 [isoniazid] + CC(=O)NC[C@H]1CN(c2ccc(N3CCOCC3)c(F)c2)C(=O)O1 [linezolid] + CO[C@H]1/C=C/O[C@@]2(C)Oc3c(C)c(O)c4c(O)c(c(/C=N/N5CCN(C6CCCC6)CC5)c(O)c4c3C2=O)NC(=O)/C(C)=C\\C=C\\[C@H](C)[C@H](O)[C@@H](C)[C@@H](O)[C@@H](C)[C@H](OC(C)=O)[C@@H]1C [rifapentine]", 0.94),
    ("CC[C@@H](CO)NCCN[C@@H](CC)CO [ethambutol] + O=[N+]([O-])c1cn2c(n1)OC[C@@H](OCc1ccc(OC(F)(F)F)cc1)C2 [pretomanid] + CO[C@H]1/C=C/O[C@@]2(C)Oc3c(C)c(O)c4c(O)c(c(/C=N/N5CCN(C6CCCC6)CC5)c(O)c4c3C2=O)NC(=O)/C(C)=C\\C=C\\[C@H](C)[C@H](O)[C@@H](C)[C@@H](O)[C@@H](C)[C@H](OC(C)=O)[C@@H]1C [rifapentine]", 0.96),
]

###

System: Mycobacterium tuberculosis Erdman (autoluminescent)
Assay: FIC50 (Loewe) at 50% inhibition (log2); higher = more antagonistic
Condition Description: in vitro model: butyrate; time point: terminal (~4-5 doublings, model-specific)
Listing of recorded FIC50 by entry.

# Compound, FIC50
data = [
    ("CC(C)/N=c1\\cc2n(-c3ccc(Cl)cc3)c3ccccc3nc-2cc1Nc1ccc(Cl)cc1 [clofazimine] + O=[N+]([O-])c1cn2c(n1)OC[C@@H](OCc1ccc(OC(F)(F)F)cc1)C2 [pretomanid]", 0.356),
    ("CC[C@@H](CO)NCCN[C@@H](CC)CO [ethambutol] + NNC(=O)c1ccncc1 [isoniazid]", 0.525),
    ("COc1c(N2C[C@@H]3CCCN[C@@H]3C2)c(F)cc2c(=O)c(C(=O)O)cn(C3CC3)c12 [moxifloxacin] + NC(=O)c1cnccn1 [pyrazinamide]", 0.181),
]

###

Listing of recorded AUC25 by entry.
System: Mycobacterium tuberculosis Erdman (autoluminescent)
Assay: AUC25, normalised area under dose response up to IC25 (fraction (0-1)); higher = more potent at low dose
Condition Description: in vitro model: acidic pH 5.7; time point: terminal (~4-5 doublings, model-specific)
Measured Metric: AUC25

# Chem Smiles, Tested Target, Measured Metric, Reported Value
rows = [
    ("COc1c(N2C[C@@H]3CCCN[C@@H]3C2)c(F)cc2c(=O)c(C(=O)O)cn(C3CC3)c12", "Mycobacterium tuberculosis Erdman (autoluminescent)", "AUC25", 0.0782),
    ("O=[N+]([O-])c1cn2c(n1)OC[C@@H](OCc1ccc(OC(F)(F)F)cc1)C2", "Mycobacterium tuberculosis Erdman (autoluminescent)", "AUC25", 0.0605),
    ("CC[C@@H](CO)NCCN[C@@H](CC)CO", "Mycobacterium tuberculosis Erdman (autoluminescent)", "AUC25", 0.0746),
    ("CO[C@H]1/C=C/O[C@@]2(C)Oc3c(C)c(O)c4c(O)c(c(/C=N/N5CCN(C)CC5)c(O)c4c3C2=O)NC(=O)/C(C)=C\\C=C\\[C@H](C)[C@H](O)[C@@H](C)[C@@H](O)[C@@H](C)[C@H](OC(C)=O)[C@@H]1C", "Mycobacterium tuberculosis Erdman (autoluminescent)", "AUC25", 0.0838),
    ("NNC(=O)c1ccncc1", "Mycobacterium tuberculosis Erdman (autoluminescent)", "AUC25", 0.0392),
    ("CO[C@H]1/C=C/O[C@@]2(C)Oc3c(C)c(O)c4c(O)c(c(/C=N/N5CCN(C6CCCC6)CC5)c(O)c4c3C2=O)NC(=O)/C(C)=C\\C=C\\[C@H](C)[C@H](O)[C@@H](C)[C@@H](O)[C@@H](C)[C@H](OC(C)=O)[C@@H]1C", "Mycobacterium tuberculosis Erdman (autoluminescent)", "AUC25", 0.0625),
]

###

Listing of recorded AUC25 by entry.
System: Mycobacterium tuberculosis Erdman (autoluminescent)
Assay: AUC25, normalised area under dose response up to IC25 (three-drug combination) (fraction (0-1)); higher = more potent at low dose
Condition Description: in vitro model: butyrate; time point: terminal (~4-5 doublings, model-specific)

# Compound, Tested Target, AUC25
records = [
    ("COc1nc2ccc(Br)cc2cc1[C@@H](c1ccccc1)[C@@](O)(CCN(C)C)c1cccc2ccccc12 [bedaquiline] + NNC(=O)c1ccncc1 [isoniazid] + CC(=O)NC[C@H]1CN(c2ccc(N3CCOCC3)c(F)c2)C(=O)O1 [linezolid]", "Mycobacterium tuberculosis Erdman (autoluminescent)", 0.0647),
    ("COc1c(N2C[C@@H]3CCCN[C@@H]3C2)c(F)cc2c(=O)c(C(=O)O)cn(C3CC3)c12 [moxifloxacin] + NC(=O)c1cnccn1 [pyrazinamide] + CO[C@H]1/C=C/O[C@@]2(C)Oc3c(C)c(O)c4c(O)c(c(/C=N/N5CCN(C6CCCC6)CC5)c(O)c4c3C2=O)NC(=O)/C(C)=C\\C=C\\[C@H](C)[C@H](O)[C@@H](C)[C@@H](O)[C@@H](C)[C@H](OC(C)=O)[C@@H]1C [rifapentine]", "Mycobacterium tuberculosis Erdman (autoluminescent)", 0.0899),
]

###

Listing of recorded FIC50 by entry.
Test system: Mycobacterium tuberculosis Erdman (autoluminescent)
Assay: FIC50 (Loewe) at 50% inhibition (log2); higher = more antagonistic
Condition Description: in vitro model: cholesterol-high 0.2 mM; time point: constant (~7 days, model-specific)
Measured Metric: FIC50

# Molecule, Reported Value
data = [
    ("COc1nc2ccc(Br)cc2cc1[C@@H](c1ccccc1)[C@@](O)(CCN(C)C)c1cccc2ccccc12 [bedaquiline] + CC[C@@H](CO)NCCN[C@@H](CC)CO [ethambutol]", 0.819),
    ("COc1c(N2C[C@@H]3CCCN[C@@H]3C2)c(F)cc2c(=O)c(C(=O)O)cn(C3CC3)c12 [moxifloxacin] + CO[C@H]1/C=C/O[C@@]2(C)Oc3c(C)c(O)c4c(O)c(c(/C=N/N5CCN(C)CC5)c(O)c4c3C2=O)NC(=O)/C(C)=C\\C=C\\[C@H](C)[C@H](O)[C@@H](C)[C@@H](O)[C@@H](C)[C@H](OC(C)=O)[C@@H]1C [rifampicin]", 0.432),
    ("CC[C@@H](CO)NCCN[C@@H](CC)CO [ethambutol] + CO[C@H]1/C=C/O[C@@]2(C)Oc3c(C)c(O)c4c(O)c(c(/C=N/N5CCN(C6CCCC6)CC5)c(O)c4c3C2=O)NC(=O)/C(C)=C\\C=C\\[C@H](C)[C@H](O)[C@@H](C)[C@@H](O)[C@@H](C)[C@H](OC(C)=O)[C@@H]1C [rifapentine]", 0.734),
    ("O=[N+]([O-])c1cn2c(n1)OC[C@@H](OCc1ccc(OC(F)(F)F)cc1)C2 [pretomanid] + CO[C@H]1/C=C/O[C@@]2(C)Oc3c(C)c(O)c4c(O)c(c(/C=N/N5CCN(C6CCCC6)CC5)c(O)c4c3C2=O)NC(=O)/C(C)=C\\C=C\\[C@H](C)[C@H](O)[C@@H](C)[C@@H](O)[C@@H](C)[C@H](OC(C)=O)[C@@H]1C [rifapentine]", 0.634),
]

Numbers sourced from the supplement of paper PMC8617591.
